Below, each entry is listed with its recorded % Inhibition.
# Measured On: T1, human ASGR-1 (human, UniProt P07306 1-291)
# T1 construct: Stably expressed on CHO-S cells (CHO-S:huASGR-1); The method text says human or mouse ASGR-1 cells were used; also called huASGR-1; hASGR-1
# T1 sequence: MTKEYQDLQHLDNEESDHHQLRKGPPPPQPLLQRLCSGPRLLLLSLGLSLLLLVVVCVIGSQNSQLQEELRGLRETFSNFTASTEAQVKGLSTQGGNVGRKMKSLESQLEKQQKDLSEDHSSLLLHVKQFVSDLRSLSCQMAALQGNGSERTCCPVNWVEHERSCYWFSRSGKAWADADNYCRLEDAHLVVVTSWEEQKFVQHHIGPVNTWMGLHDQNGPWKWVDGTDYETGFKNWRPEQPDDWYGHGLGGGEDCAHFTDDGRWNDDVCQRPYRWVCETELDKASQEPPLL
# Experiment Summary: FACS ligand blocking on CHO-S ASGR-1 cells; labelled ligand biotin-GalNAc-PAA (synthetic sugar)
# Procedure: All ASGR-1 antibodies that bound either human or mouse ASGR-1 stable CHO—S cells were then tested for ligand blocking using both a protein ligand and a synthetic sugar ligand. […] The plates were read and processed similarly to the cell binding method except the signal now represents an inhibition curve and typically decreases a function of increasing antibody concentration. […]
Give the value, in units of %, as a plain number.

Known % Inhibition results, listed for orientation:
| Binder | Observable | Result Number |
| --- | --- | --- |
| 7G4 (antibody, V domains shown) VH: QVQLVESGGGVVQPGRSLRLSCAASGFTFNNYVMHWVRQAPGKGLEWVAVIWYDGSNKYYADSVKGRFTISRDNSKNTLYLQMTSLRAEDTAVYYCAREKYSSNWYDYGMDVWGQGTTVTVSS VL: DIQMTQSPSSLSASVGDRVTITCRASQGIRNDLGWYQQRPGKAPKRLIYAASSLQSGVPSRFSGSGSGTEFTLTISSLQPEDSATYYCLHQYSYPRTFGQGTKVEIK | % Inhibition | -30 |
| 198D2 (antibody, V domains shown) VH: QVQLVESGGGVVQPGRSLRLSCAASGFTFRSYGMHWVRQAPGKGLEWVAVIIYDGSYKYYADSVKGRFTISRDNSKNTLYLQMNSLRAEDTAVYYCARTYSGGMDVWGQGTTVTVSS VL: QSVLTQPPSVSAAPGQKVTISCSGSSSNIGSNYVSWYQQLPGTAPKVLIYDNNKRPSGIPDRFSGSKSGTSATLGITGLQTGDEADYYCGTWDSRLNVGVFGGGTKLTVL | % Inhibition | 99 |

Supply recorded % Inhibition for 198G3 (antibody, V domains shown) VH: QVQLVESGGGVVQPGRSLKLSCAASGFTFSTYGMHWVRQAPGKGLEWVAVIWYDGTNKNYADSVKGRFTISRDNSKNTLCLQMNSLRAEDTAVYYCARDQGVGYDGLDVWGQGTTVTVSS VL: DIQMAQSPSSLSASVGDRVTITCRTSQGIGKYLAWFQQKPGKAPKSLLYKASSLQGGVPSKFSGSGSGTDFTLTISSLQPEDFATYYCQQYMTYPLTFGGGTKVEIK here.
81

Supply recorded % Inhibition for 5E5 (antibody, V domains shown) VH: QVQLVESGGGVVQPGRSLRLSCAASGFTFSNYVMHWVRQAPGKGLEWVAVIWYDGSNKYYADSVKGRFTISRDNSKNTLYLQMNSLRAEDTAVYYCTREVYSSGWYDYGMDVWGQGTTVTVSS VL: DIQMTQSPSSLSASVGDRVTITCRASQGIRNDLGWYQQKPGKAPKRLIYAASSLQSGVPSRFSGSGSGTEFTLTISSLQPEDFATYYCLQHYSYPRTFGQGTKVEVK here.
0

Supply recorded % Inhibition for 194C10 (antibody, V domains shown) VH: QVQLQQWGAGLLKPSETLSLTCAVSGGSFRYYYWSWIRQPPGKGLEWFGEINHSGSTNYNPSLKSRVTISIDTSKNQFSLKLRSVTAADTAVYYCARDYGAFDIWGQGTMVTVSS VL: EIVLTQSPGTLSLSPGERATLSCRASPSVNSGYLAWYQQKPGQTPRLLIFGASSRATGIPDRFSASGSGADFTLTISRLEPEDFAVYFCQQYESSPWTFGQGTKVEIK here.
99
